System: ABCG2
Experiment: SRB drug sensitivity, PC-13 transfected with ABCG2 (clone 3)
Type: cell-based, human
Conditions: human; PC-13/ABCG2-3; average ± standard error of three independent experiments
Protocol: Test cells in the logarithmic growth phase were dispensed into wells of 96-well plate at 1×10^3 cells/well. After subculture for 24 hours in a CO2 incubator, a serial diluted agent was added to each well. […] The samples were eluted by 10 mM Tris-HCl for 1 hour, and each well was measured at 560 nm with a 450 nm reference, by a SPECTRAmax 250 plate reader (Molecular Devices Corp.). […]
Item-by-item account of IC50 at 72 h
Reported Metric: IC50 at 72 h (µM)

[
  {
    "Molecule": "O=C1c2c(O)ccc(O)c2C(=O)c2c(NCCNCCO)ccc(NCCNCCO)c21",
    "Reading Unit": "µM",
    "Recorded Value": 0.031
  },
  {
    "Molecule": "COc1cc([C@@H]2c3cc4c(cc3[C@@H](O[C@@H]3O[C@@H]5CO[C@@H](C)O[C@H]5[C@H](O)[C@H]3O)[C@H]3COC(=O)[C@H]23)OCO4)cc(OC)c1O [Etoposide]",
    "Reading Unit": "µM",
    "Recorded Value": 1.1
  },
  {
    "Molecule": "CC[C@@]1(O)C(=O)OCc2c1cc1n(c2=O)Cc2cc3ccccc3nc2-1",
    "Reading Unit": "µM",
    "Recorded Value": 0.052
  },
  {
    "Molecule": "CC[C@@]1(O)C(=O)OCc2c1cc1n(c2=O)Cc2cc3c(CN(C)C)c(O)ccc3nc2-1",
    "Reading Unit": "µM",
    "Recorded Value": 0.096
  }
]

====

system: ABCG2; test: SRB drug sensitivity, PC-13 transfected with ABCG2 (clone 2); format: cell-based, human; conditions: human; PC-13/ABCG2-2; average ± standard error of three independent experiments

[
  {
    "Compound": "CC[C@@]1(O)C(=O)OCc2c1cc1n(c2=O)Cc2cc3ccccc3nc2-1",
    "IC50 at 72 h (µM)": 0.029
  },
  {
    "Compound": "O=C1c2c(O)ccc(O)c2C(=O)c2c(NCCNCCO)ccc(NCCNCCO)c21",
    "IC50 at 72 h (µM)": 0.022
  },
  {
    "Compound": "CC[C@@]1(O)C(=O)OCc2c1cc1n(c2=O)Cc2cc3c(CN(C)C)c(O)ccc3nc2-1",
    "IC50 at 72 h (µM)": 0.19
  },
  {
    "Compound": "COc1cc([C@@H]2c3cc4c(cc3[C@@H](O[C@@H]3O[C@@H]5CO[C@@H](C)O[C@H]5[C@H](O)[C@H]3O)[C@H]3COC(=O)[C@H]23)OCO4)cc(OC)c1O [Etoposide]",
    "IC50 at 72 h (µM)": 0.46
  }
]

====

test system: HeLaS3; experiment: SRB drug sensitivity, HeLaS3 (Compound-A-sensitive); assay type: cell-based; settings: Homo sapiens, HeLa S3, 72 hours with agent
Reported Metric: log10 IC50 (log10 of the value in nM)

[
  {
    "Compound": "CC[C@@]1(O)C(=O)OCc2c1cc1n(c2=O)Cc2cc3c(CN(C)C)c(O)ccc3nc2-1",
    "log10 IC50": 1.80
  },
  {
    "Compound": "CC[C@@]1(O)C(=O)OCc2c1cc1n(c2=O)Cc2cc3ccccc3nc2-1",
    "log10 IC50": 1.15
  },
  {
    "Compound": "COc1cccc2c1C(=O)c1c(O)c3c(c(O)c1C2=O)C[C@@](O)(C(=O)CO)C[C@@H]3O[C@H]1C[C@H](N)[C@H](O)[C@H](C)O1",
    "log10 IC50": 1.54
  },
  {
    "Compound": "CC[C@]1(O)C[C@H]2CN(CCc3c([nH]c4ccccc34)[C@@](C(=O)OC)(c3cc4c(cc3OC)N(C=O)[C@H]3[C@@](O)(C(=O)OC)[C@H](OC(C)=O)[C@]5(CC)C=CCN6CC[C@]43[C@@H]65)C2)C1",
    "log10 IC50": -0.15
  },
  {
    "Compound": "CC(=O)O[C@H]1C(=O)[C@@]2(C)[C@H]([C@H](OC(=O)c3ccccc3)[C@]3(O)C[C@H](OC(=O)[C@H](O)[C@@H](NC(=O)c4ccccc4)c4ccccc4)C(C)=C1C3(C)C)[C@]1(OC(C)=O)CO[C@@H]1C[C@@H]2O",
    "log10 IC50": 0.00
  },
  {
    "Compound": "O=C1c2c(O)ccc(O)c2C(=O)c2c(NCCNCCO)ccc(NCCNCCO)c21",
    "log10 IC50": 0.64
  },
  {
    "Compound": "COc1cc([C@@H]2c3cc4c(cc3[C@@H](O[C@@H]3O[C@@H]5CO[C@@H](C)O[C@H]5[C@H](O)[C@H]3O)[C@H]3COC(=O)[C@H]23)OCO4)cc(OC)c1O [Etoposide]",
    "log10 IC50": 3.08
  }
]

====

test system: PC-13/Vector; test: SRB drug sensitivity, PC-13 transfected with vector alone; format: cell-based; conditions: Homo sapiens, average ± standard error of three independent experiments
pIC50: −log10 of the molar value.

[
  {
    "Compound": "COc1cc([C@@H]2c3cc4c(cc3[C@@H](O[C@@H]3O[C@@H]5CO[C@@H](C)O[C@H]5[C@H](O)[C@H]3O)[C@H]3COC(=O)[C@H]23)OCO4)cc(OC)c1O [Etoposide]",
    "pIC50": 6.00
  },
  {
    "Compound": "CC[C@@]1(O)C(=O)OCc2c1cc1n(c2=O)Cc2cc3ccccc3nc2-1 [Camptothecin]",
    "pIC50": 7.37
  },
  {
    "Compound": "O=C1c2c(O)ccc(O)c2C(=O)c2c(NCCNCCO)ccc(NCCNCCO)c21 [Mitoxantrone]",
    "pIC50": 7.28
  },
  {
    "Compound": "CC[C@@]1(O)C(=O)OCc2c1cc1n(c2=O)Cc2cc3c(CN(C)C)c(O)ccc3nc2-1 [Topotecan]",
    "pIC50": 6.68
  }
]

====

system: HCT116; experiment: SRB drug sensitivity, HCT116 parental cells; assay type: cell-based; details: Homo sapiens, HCT-116, 72 hours with agent
Item-by-item account of IC50
Reported Metric: IC50 (nM)

[
  {
    "Compound": "COc1cccc2c1C(=O)c1c(O)c3c(c(O)c1C2=O)C[C@@](O)(C(=O)CO)C[C@@H]3O[C@H]1C[C@H](N)[C@H](O)[C@H](C)O1 [Doxorubicin]",
    "Reported Metric": "IC50",
    "Recorded Value": 25
  },
  {
    "Compound": "COc1cc([C@@H]2c3cc4c(cc3[C@@H](O[C@@H]3O[C@@H]5CO[C@@H](C)O[C@H]5[C@H](O)[C@H]3O)[C@H]3COC(=O)[C@H]23)OCO4)cc(OC)c1O [Etoposide]",
    "Reported Metric": "IC50",
    "Recorded Value": 1100
  },
  {
    "Compound": "CC[C@]1(O)C[C@H]2CN(CCc3c([nH]c4ccccc34)[C@@](C(=O)OC)(c3cc4c(cc3OC)N(C=O)[C@H]3[C@@](O)(C(=O)OC)[C@H](OC(C)=O)[C@]5(CC)C=CCN6CC[C@]43[C@@H]65)C2)C1 [Vincristine]",
    "Reported Metric": "IC50",
    "Recorded Value": 2
  }
]

====

system: HCT116/NR1; assay: SRB drug sensitivity, Compound-A-resistant HCT116/NR1; type: cell-based, human; details: IC50 HCT116/NR1 divided by IC50 HCT116
Each entry gets false if its RR: Relative Resistance stays under 3, and true if its RR: Relative Resistance is 3 or above.

[
  {
    "Compound": "CC(=O)O[C@H]1C(=O)[C@@]2(C)[C@H]([C@H](OC(=O)c3ccccc3)[C@]3(O)C[C@H](OC(=O)[C@H](O)[C@@H](NC(=O)c4ccccc4)c4ccccc4)C(C)=C1C3(C)C)[C@]1(OC(C)=O)CO[C@@H]1C[C@@H]2O [Paclitaxel]",
    "Answer Label": "false"
  },
  {
    "Compound": "O=C1c2c(O)ccc(O)c2C(=O)c2c(NCCNCCO)ccc(NCCNCCO)c21 [Mitoxantrone]",
    "Answer Label": "true"
  },
  {
    "Compound": "COc1cccc2c1C(=O)c1c(O)c3c(c(O)c1C2=O)C[C@@](O)(C(=O)CO)C[C@@H]3O[C@H]1C[C@H](N)[C@H](O)[C@H](C)O1 [Doxorubicin]",
    "Answer Label": "false"
  },
  {
    "Compound": "CC[C@@]1(O)C(=O)OCc2c1cc1n(c2=O)Cc2cc3ccccc3nc2-1 [Camptothecin]",
    "Answer Label": "false"
  },
  {
    "Compound": "COc1cc([C@@H]2c3cc4c(cc3[C@@H](O[C@@H]3O[C@@H]5CO[C@@H](C)O[C@H]5[C@H](O)[C@H]3O)[C@H]3COC(=O)[C@H]23)OCO4)cc(OC)c1O [Etoposide]",
    "Answer Label": "true"
  },
  {
    "Compound": "CC[C@]1(O)C[C@H]2CN(CCc3c([nH]c4ccccc34)[C@@](C(=O)OC)(c3cc4c(cc3OC)N(C=O)[C@H]3[C@@](O)(C(=O)OC)[C@H](OC(C)=O)[C@]5(CC)C=CCN6CC[C@]43[C@@H]65)C2)C1 [Vincristine]",
    "Answer Label": "true"
  }
]
